Data origin: patent US20250084074A1

Molecular target: UniProtKB Q9BW19
Assay: HSET ADP-Glo Assay S - 3 μM ATP
Details: 5 nM HSET, 70 μg/mL microtubule, 80 min at rt, read-out: COMBINED HSET ADP GLO IC50
Experimental: Example 281: Testing compounds of the present invention for inhibitory activities against HSET—HSET ADP-Glo Assay S—3 μM ATP Reagents: (+4° C. Storage) • Paclitaxel Prod.No.TXD.01 2 mM in DMSO (from Universal Biologicals Cambridge). • Tubulin Protein (Pre-formed Microtubules): Bovine Brain Prod.No.MT001-XL Lot.025 10 mg/mL (from Universal Biologicals Cambridge). […]
pIC50: −log10 of the molar value.
Use 8 as the dividing line for pIC50, with the line itself on the fulfilled side and lower values as not fulfilled.

- molecule: "CCOC(=O)c1sc(NC(=O)CCNc2nccc3ccc(-c4noc(C)n4)cc23)nc1C [Example 45]"
  systemUnderTest: "UniProtKB Q9BW19"
  assignedCategory: "fulfilled"
- molecule: "CCCOC(=O)c1sc(NC(=O)CC2(NC(=O)c3cc(Cl)cc(-c4noc(C)n4)c3)CCN(C)CC2)nc1C [Example 144]"
  systemUnderTest: "UniProtKB Q9BW19"
  assignedCategory: "not fulfilled"
- molecule: "COCCCCOC(=O)c1sc(NC(=O)CCNC(=O)c2cccc(-c3noc(C)n3)c2)nc1C [Example 69]"
  systemUnderTest: "UniProtKB Q9BW19"
  assignedCategory: "not fulfilled"
- molecule: "Cc1nc(-c2ccc3ccnc(N[C@H]4C[C@@H](C(=O)Nc5ncc(C(F)(F)C(F)(F)F)s5)C4)c3c2)no1 [Example 96]"
  systemUnderTest: "UniProtKB Q9BW19"
  assignedCategory: "not fulfilled"
- molecule: "CCCC(C)c1sc(NC(=O)CCNC(=O)c2cccc(-c3noc(C)n3)c2)nc1C (centres unmarked) [Example 129]"
  systemUnderTest: "UniProtKB Q9BW19"
  assignedCategory: "not fulfilled"

----------
Target: HSET full length protein (Homo sapiens (Human), UniProt Q9BW19)
Sequence (Q9BW19 whole entry): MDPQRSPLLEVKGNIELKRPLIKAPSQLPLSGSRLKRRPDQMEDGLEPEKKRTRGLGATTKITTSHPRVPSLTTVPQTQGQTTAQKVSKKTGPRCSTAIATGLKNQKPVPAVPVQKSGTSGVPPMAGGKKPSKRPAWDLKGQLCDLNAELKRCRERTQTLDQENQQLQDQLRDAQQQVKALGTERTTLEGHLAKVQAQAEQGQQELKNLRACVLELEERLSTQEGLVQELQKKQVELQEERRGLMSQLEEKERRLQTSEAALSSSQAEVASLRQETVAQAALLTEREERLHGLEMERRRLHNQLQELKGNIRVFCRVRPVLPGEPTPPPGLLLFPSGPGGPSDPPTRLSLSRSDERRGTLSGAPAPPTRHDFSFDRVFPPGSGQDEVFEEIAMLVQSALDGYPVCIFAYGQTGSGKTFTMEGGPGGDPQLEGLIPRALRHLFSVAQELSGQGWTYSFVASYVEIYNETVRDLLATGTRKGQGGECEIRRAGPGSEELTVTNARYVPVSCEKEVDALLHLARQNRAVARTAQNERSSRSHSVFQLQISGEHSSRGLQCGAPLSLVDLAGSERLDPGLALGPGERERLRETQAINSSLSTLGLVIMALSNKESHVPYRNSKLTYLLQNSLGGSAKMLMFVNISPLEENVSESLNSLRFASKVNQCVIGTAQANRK
Assay: HSET ADP-Glo Assay S - 3 μM ATP
Conditions: 5 nM HSET, 70 μg/mL microtubule, 80 min at rt, read-out: COMBINED HSET ADP GLO IC50
Where a name gives a salt, the structure may show the parent alone.
Lab note: anything with IC50 below 0.2 µM is marked YES; values at 0.2 µM or higher are marked NO.

- molecule: "CCOC(=O)c1sc(NC(=O)CCNC(=O)c2cc(F)cc(C(=O)OC)c2)nc1C [Example 10]"
  assignedCategory: "YES"
- molecule: "Cc1nc(-c2cccc(C(=O)NCCC(=O)Nc3nc(C)c(C(=O)OC(C)C)s3)n2)no1 [Example 278]"
  assignedCategory: "YES"
- molecule: "CCOC(=O)c1cnc(NC(=O)CCNC(=O)c2cccc(-c3noc(C)n3)c2)s1 [Example 61]"
  assignedCategory: "NO"
- molecule: "CCCOC(=O)n1cc(NC(=O)[C@H](O)CNC(=O)c2cccc(-c3cnn(C)c3)c2)nc1C [Example 268]"
  assignedCategory: "NO"
- molecule: "CCCOC(=O)c1sc(NC(=O)CCNC(=O)c2cc(C#N)cc(C(=O)OC)c2)nc1C [Example 30]"
  assignedCategory: "YES"
- molecule: "Cc1nc(-c2ccc3ncnc(NCCC(=O)Nc4nc(C)c(C(C)(C)C)s4)c3c2)no1 [Example 47, formate]"
  assignedCategory: "YES"

----------
# reported IC50; entries follow
Target: HSET full length protein (Homo sapiens (Human), UniProt Q9BW19)
Experiment: HSET ADP-Glo Assay S - 3 μM ATP
Settings: 5 nM HSET, 70 μg/mL microtubule, 80 min at rt, read-out: COMBINED HSET ADP GLO IC50

- smilesText: "CCOC(=O)c1sc(NC(=O)CCNC(=O)c2cc(Cl)cc(C(=O)OC)c2)nc1C"
  unitName: "µM"
  IC50: 0.009
- smilesText: "Cc1nc(-c2cccc(C(=O)NCCC(=O)Nc3nc(C)c(C(=O)OC(C)(C)C)s3)c2)no1"
  unitName: "µM"
  IC50: 0.01
- smilesText: "Cc1nc(-c2cccc(C(=O)NCCC(=O)Nc3nc(C)c(C(=O)OC4CCCCC4)s3)c2)no1"
  unitName: "µM"
  IC50: 0.014
